Tested on: HepG2 liver cancer cells
Assay Details: Cell toxicity (MTT assay), HepG2
Type: cell-based
Cond: copper ions alone, absence of peptides, read-out: LC50 (the source's name)
Experimental: HEK293 and MCF7 cells were cultured in Dulbecco’s modified Eagle’s medium (DMEM) high glucose medium, with fetal bovine serum (10%), L-glutamine (1%), and PSNS antibiotic (1%). The HepG2 cell line was cultured in Eagle’s minimum essential medium (EMEM), with fetal bovine serum (10%), L-glutamine (1%) and PSNS antibiotic (1%). […] After the 24 h treatment, the various toxicity end points were evaluated in the control and peptide-exposed cells. […]
Exercise: state measured CC50 for each of the compounds provided.
One number for each entry, in µM.

[Cu+] :: 170

Please find the next compound below.
Entry [Cu+2] , system HepG2 liver cancer cells: what CC50 was measured?
205

----------
Exercise: state measured CC50 for each of the molecules provided.
Test system: MCF7 breast cancer cells
Assay Details: Cell toxicity (MTT assay), MCF7
Format: cell-based
Cond: copper ions alone, absence of peptides, read-out: LC50 (the source's name)

[Cu+] [Cu(I)] :: 165 µM

Please find the next molecule below.
Quick check: CC50 of [Cu+2] [Cu(II)] ?
180 µM

Every entry's value here was drawn from paper PMC9589254.
